These entries and their values trace back to PubChem BioAssay (NCI).

- Test system: OVCAR-8 ovarian
- EXPERIMENT_DESCRIPTION: NCI tumour cell line growth inhibition, 48 h; in the data active = GI50 below about 0.43 µM; inactive = the rest
Pick one: label 1 (active), label 0 (inactive)

input: Which outcome was entered for the molecule NC(N)=N/N=C/c1cccc(Cl)c1Cl in this test?
output: label 0

input: Which outcome was entered for the molecule COC(=O)c1c2c(c(C)[n+]([O-])c1C)C(=O)C(NCc1cccc(OC)c1)=CC2=O in this test?
output: label 0

input: Which outcome was entered for the molecule COc1ccc(C2C(c3ccccc3)C(=O)N2c2cc(OC)c(OC)c(OC)c2)cc1I (stereo not drawn) in this test?
output: label 1

input: Which outcome was entered for the molecule Cc1ccc(S(=O)(=O)NC(CCC(=O)Nc2ccccc2)C(=O)Nc2ccccc2)cc1 (stereo not drawn) in this test?
output: label 0

input: Which outcome was entered for the molecule COc1cc(/C=C2\CC3C4CC=C5C[C@@H](N6CCCC6)CC[C@]5(C)C4CC[C@]3(C)[C@H]2OC(C)=O)ccc1OCCN1CCCCC1 (stereo partly drawn) in this test?
output: label 0

input: Which outcome was entered for the molecule O=C1C(Cl)=C(Nc2cccc(C(F)(F)F)c2)C(=O)N1Cc1ccccc1Cl in this test?
output: label 0

input: Which outcome was entered for the molecule CCN(CC)CCCCCOc1cc(O)c2c(=O)cc(-c3ccccc3)oc2c1 in this test?
output: label 0

input: Which outcome was entered for the molecule Cc1ccccc1-n1c(/C=C\c2ccccn2)nc2ccccc2c1=O in this test?
output: label 0

input: Which outcome was entered for the molecule C=CC[Se]C(=O)Cc1c(C)n(C(=O)c2ccc(Cl)cc2)c2ccc(OC)cc12 in this test?
output: label 0

input: Which outcome was entered for the molecule CCN(Cc1nc2cc(C(F)(F)F)ccc2nc1-c1ccccc1)c1ccc(OC)c(OC)c1 in this test?
output: label 0

input: Which outcome was entered for the molecule CCn1c(-c2nonc2N)nc2c(C#CC(C)(C)O)nc(O[C@@H](CN)c3ccccc3)cc21 in this test?
output: label 1

input: Which outcome was entered for the molecule COC(=O)[C@@H](Cc1c[nH]c2ccccc12)NC(=O)/C=C/c1ccccc1 in this test?
output: label 0

input: Which outcome was entered for the molecule O=C(O)c1ccc(-c2ccc(C(=O)O)cc2I)c(I)c1 in this test?
output: label 0

input: Which outcome was entered for the molecule O=C1/C(=C/c2ccc([N+](=O)[O-])s2)Oc2ccccc21 in this test?
output: label 1

input: Which outcome was entered for the molecule CC[C@H](Nc1nc(N)nc(N)c1Cl)c1nc2cccc(NCc3ccc(C(=O)NO)cc3)c2c(=O)n1-c1ccccc1 in this test?
output: label 0

input: Which outcome was entered for the molecule Cc1ccc2[nH]c(C(=O)NN3C(=O)CSC34CCCC(C)C4)c(-c3ccccc3)c2c1 (stereo not drawn) in this test?
output: label 0

input: Which outcome was entered for the molecule CCCCCC(=O)OCC(=O)O[C@@H]1C[C@]2(C(C)C)O[C@@]1(C)[C@@H]1CC[C@@H](C)[C@H]1[C@@H]2OC(=O)/C=C/c1ccccc1 in this test?
output: label 1

input: Which outcome was entered for the molecule CC(F)(F)c1cc(F)ccc1-c1sc2cc(O)ccc2c1Oc1ccc(/C=C/C(=O)O)cc1 in this test?
output: label 0

---

Would you mind telling me the reported TGI of each entry?
- Test system: COLO 205 colon
- EXPERIMENT_DESCRIPTION: NCI tumour cell line growth inhibition, 48 h

input: TGI for O=C1SC(c2ccc(Cl)cc2)(c2ccc(Cl)cc2)c2ccccc21 ?
output: > 100 µM

input: TGI for Cc1ccc(S(=O)(=O)NC(=O)NCC(=O)NCC(=O)O)cc1 ?
output: > 100 µM

input: TGI for COc1cc2c(cc1OC)C(Cl)C(c1ccc(Cl)cc1)=C2Cl (configuration not stated) ?
output: 32.2 µM

input: TGI for CCOC(=O)c1c2c(c(O)c3ccccc3c(O)n(-c3ccc(C)cc3)c1C)C(=O)C=CC2=O ?
output: 48.5 µM

input: TGI for O=C(O)c1ccc(S(=O)(=O)N=Nc2c(O)[nH]c3ccccc23)cc1 ?
output: > 100 µM

input: TGI for COC(C/C(=C/CO[Si](C(C)C)(C(C)C)C(C)C)C(=O)Nc1ccccc1I)OC ?
output: > 100 µM

input: TGI for COc1ccc(/C(Cl)=C(\C=O)c2ccc(Br)cc2)cc1OC ?
output: > 100 µM

input: TGI for Cn1cnc([N+](=O)[O-])c1SCC(=O)O ?
output: > 100 µM

input: TGI for COc1ccc(CCNCc2cccc(OC)c2OC)cc1OC ?
output: > 100 µM

input: TGI for CN(/N=C/c1ccnc2ccccc12)c1ccc([N+](=O)[O-])cc1[N+](=O)[O-] ?
output: > 100 µM

input: TGI for Cc1cnc2[nH]c(-c3ccc(F)cc3)cc(=O)c2c1 ?
output: > 52.7 µM

input: TGI for CCn1c(-c2nonc2N)nc2c(C#CC(C)(C)O)nc(O[C@@H](CN)c3ccccc3)cc21 ?
output: 0.646 µM

input: TGI for NC(=O)c1csc(CCCCCCc2nc(C(N)=O)cs2)n1 ?
output: > 100 µM

input: TGI for C[C@H]1COC2(c3ccccc3)CCC(=O)N12 (some centres not stated) ?
output: > 100 µM

input: TGI for CCCCOP(=O)(OCCCC)/C(C#N)=C/c1ccco1 ?
output: > 100 µM

input: TGI for Cc1cccc2c1Oc1cc(Cl)ccc1C2NC(=O)CN(C)C (configuration not stated) ?
output: > 100 µM

input: TGI for O=c1n(-c2ccccc2)c(=O)n2n1C1CCC2CC1 ?
output: > 100 µM

input: TGI for Cc1c(C2Cc3ccccc3N2C(=O)/C=C\C(=O)O)c2ccccc2n1C (configuration not stated) ?
output: 32.1 µM

input: TGI for COc1cc(-c2nn(C(=O)NS(=O)(=O)c3ccc(C)cc3)cc2-c2ccncc2)ccc1Cl ?
output: 15.4 µM

input: TGI for CCOC(OCC)c1ccc(/C=C/c2cc(OC)c(OC)c(OC)c2)cc1 ?
output: 33.5 µM

input: TGI for C[C@@H]1C[C@@H](O)[C@@]2(O)C13CC(=O)OC(C3)[C@@H](C)[C@@]2(C)CO (some centres not stated) ?
output: > 100 µM

input: TGI for CN(C)CCNC(=O)c1cccc2nc3c4ccccc4c4ccccc4c3nc12 ?
output: 19.3 µM
